- TEST SYSTEM: UniProt Q06187
- Sequence (Q06187 whole entry): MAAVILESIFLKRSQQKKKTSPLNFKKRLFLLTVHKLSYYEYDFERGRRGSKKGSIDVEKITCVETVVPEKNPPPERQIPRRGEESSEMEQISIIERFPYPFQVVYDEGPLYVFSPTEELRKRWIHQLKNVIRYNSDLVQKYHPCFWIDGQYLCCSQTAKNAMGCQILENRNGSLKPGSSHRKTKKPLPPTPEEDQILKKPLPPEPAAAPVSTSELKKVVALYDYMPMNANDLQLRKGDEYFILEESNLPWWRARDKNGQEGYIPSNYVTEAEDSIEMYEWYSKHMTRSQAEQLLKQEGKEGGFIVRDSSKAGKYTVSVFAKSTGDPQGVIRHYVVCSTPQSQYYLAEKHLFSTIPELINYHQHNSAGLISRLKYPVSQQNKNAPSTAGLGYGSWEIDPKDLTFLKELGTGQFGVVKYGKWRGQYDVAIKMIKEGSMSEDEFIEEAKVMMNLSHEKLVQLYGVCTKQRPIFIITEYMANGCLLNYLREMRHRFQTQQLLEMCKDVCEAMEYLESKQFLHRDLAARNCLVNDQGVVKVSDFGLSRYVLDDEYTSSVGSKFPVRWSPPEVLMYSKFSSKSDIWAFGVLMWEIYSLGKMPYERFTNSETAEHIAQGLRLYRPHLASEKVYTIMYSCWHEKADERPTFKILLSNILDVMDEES
- ASSAY METHOD TEXT: Caliper-based kinase assay, WT BTK
- Type: biochemical
- ASSAY CONDITIONS: 0.5 nM enzyme, ATP 16 μM, room temperature 3 h; read-out: WT BTK IC50 (nM) (irreversible inhibition)
Quick reference: IC50 of the listed items.
READOUT: IC50 (nM)

>>> result_number("C=CC(=O)Nc1cc(Nc2nc(-c3ccnc(N4CCn5c(cc6c5CC(C)(C)C6)C4=O)c3C)cn(C)c2=O)ccc1N1CCC(N2CCOCC2)CC1.Cl [Example 18, hydrochloride]")
0.18
>>> result_number("C=CC(=O)Nc1cc(Nc2nc(-c3ccnc(N4CCc5c(sc6c5CCCC6)C4=O)c3CO)cn(C)c2=O)ccc1N1CCN(C2CCOCC2)C[C@@H]1C")
0.058
>>> result_number("C=CC(=O)Nc1cc(Nc2nc(-c3ccnc(N4CCc5c(sc6c5CCCC6)C4=O)c3C)cn(C)c2=O)ccc1N1CCN(C2CCOCC2)C[C@H]1C(F)(F)F")
4.4

The measurements presented in this section are drawn from patent US20220363689A1.
